- System: L1210 leukemia ip in BDF1 mice, survival T/C
- Assay Method Text: NCI In Vivo Anticancer Drug Screen. Data for tumor model L1210 Leukemia (intraperitoneal) in B6D2F1 (BDF1) mice
- Stated Conditions: endpoint: mean survival time; dose: 25.0 mg/kg/injection; schedule: Q04DX003 (ip); vehicle: Klucel (hydroxypropylcellulose) (HPC); higher = longer survival
Inconclusive results and toxic doses are left out.
Examples of compounds with documented T/C follow.

Request: Sample COC(OC)c1cc(=O)[nH]c(=S)[nH]1 — what was its T/C?
Response: 100 % of control

Request: Look at this compound and give its reported T/C. COc1cc2[nH]c(C)c(CCN3CCN(c4ccccc4)CC3)c2cc1OC
Response: 106 % of control

Request: May I ask what T/C has been recorded for c1coc(-c2ncnc3c2Cc2ccccc2-3)c1 ?
Response: 98 % of control

In the following, a different compound is considered.
Request: Quick check: T/C of CN(NC(=O)c1ccccc1)C(=O)c1ccccc1 ?
Response: 104 % of control

###

- Test system: L1210 leukemia ip in BDF1 mice, survival T/C
- Assay Method Text: NCI In Vivo Anticancer Drug Screen. Data for tumor model L1210 Leukemia (intraperitoneal) in B6D2F1 (BDF1) mice
- Stated Conditions: endpoint: mean survival time; dose: 50.0 mg/kg/injection; schedule: Q04DX003 (ip); vehicle: saline; higher = longer survival
Toxic doses and inconclusive results are not listed.
Measurement Type: T/C

Request: Which T/C is listed for N#Cc1cnn(C(N)=S)c1N ?
Response: 110 % of control

Request: # input compound: CN(C)CCC(=O)c1ccccc1 ; wanted: its T/C
Response: 101 % of control

Request: Recorded T/C for CCCCCCCCCCNC(=O)C[n+]1cccc(C(N)=O)c1 , please?
Response: 102 % of control

Request: What does the record list as T/C for CC1CNC(=O)O1 (stereo unspecified) ?
Response: 106 % of control

Request: Which T/C is reported for this compound? NCCCc1nc(N)nc(N)c1-c1ccc(Cl)cc1
Response: 110 % of control

Request: Request the reported T/C associated with CC(=O)/C(C)=C/C(=O)O
Response: 97 % of control

***
Request: Which T/C value is on record for C=CCNCCN1CCN(CCCN2c3ccccc3Sc3ccc(C(F)(F)F)cc32)CC1 ?
Response: 96 % of control

Request: Value lookup for T/C; key = NNS(=O)(=O)c1ccccc1
Response: 101 % of control

Request: # lookup: T/C of CCc1ccc(NC2=NCCO2)cc1
Response: 101 % of control

Request: Look up T/C for this compound: O=C(C[n+]1cccc(C(=O)Nc2ccccc2)c1)Nc1ccc(Cl)cc1
Response: 98 % of control

Request: Reported T/C for [NH-]CC(=O)[N-]CC(=O)O.[NH-]CC(=O)[N-]CC(=O)O.[Ni] : what is it?
Response: 116 % of control

###

Item-by-item account of T/C
- Tested on: L1210 leukemia ip in BDF1 mice, survival T/C
- Assay Method Text: NCI In Vivo Anticancer Drug Screen. Data for tumor model L1210 Leukemia (intraperitoneal) in B6D2F1 (BDF1) mice
- Stated Conditions: endpoint: mean survival time; dose: 400.0 mg/kg/injection; schedule: Q04DX003 (ip); vehicle: saline with Tween-80; higher = longer survival
Inconclusive results and toxic doses are left out.

Request: Please look up its T/C: CN=C(N)C(N)=NC
Response: 95 % of control

Request: Endpoint output: T/C of CCn1c(N)c(N)c(=O)[nH]c1=S . Value?
Response: 86 % of control

Request: What does the data say about its T/C? Entry: O=[N+]([O-])c1ccc2c(c1)c(-c1cc(Cl)cc(Cl)c1)nc1ccccc12
Response: 93 % of control

###

- System: L1210 leukemia ip in BDF1 mice, survival T/C
- Assay Method Text: NCI In Vivo Anticancer Drug Screen. Data for tumor model L1210 Leukemia (intraperitoneal) in B6D2F1 (BDF1) mice
- Stated Conditions: endpoint: mean survival time; dose: 100.0 mg/kg/injection; schedule: Q04DX003 (ip); vehicle: other; higher = longer survival
Inconclusive results and toxic doses are left out.
Measurement Type: T/C

Request: For the record NC(Cc1c[nH]c2ccc(F)cc12)C(=O)O (configuration not stated) , what value of T/C is listed for L1210 leukemia ip in BDF1 mice, survival T/C?
Response: 119 % of control

Request: Requested read-out T/C, target or system L1210 leukemia ip in BDF1 mice, survival T/C, entry FC(F)(F)C(F)(F)c1nc2nc(Cl)c(Cl)nc2[nH]1
Response: 120 % of control

Request: # returns recorded T/C (system: L1210 leukemia ip in BDF1 mice, survival T/C) for O=C(O)C1C2CC3C(C2)C31 (configuration not stated)
Response: 97 % of control

Request: Which T/C is reported with L1210 leukemia ip in BDF1 mice, survival T/C for this entry: CC(C)SCC(NC(=O)/C=C/c1ccccc1)C(=O)O (configuration not stated) ?
Response: 101 % of control

Request: Form entry - test system: L1210 leukemia ip in BDF1 mice, survival T/C; read-out: T/C; compound: CCN(CC)S(=O)(=O)c1ccc(OC)c(N)c1
Response: 96 % of control

Request: Which measured T/C belongs to CC(CCC(=O)O)(c1cc(Br)c(O)c(Br)c1)c1cc(Br)c(O)c(Br)c1 , tested on L1210 leukemia ip in BDF1 mice, survival T/C?
Response: 102 % of control

Request: // map NC(=O)OCCI to recorded T/C (system: L1210 leukemia ip in BDF1 mice, survival T/C)
Response: 121 % of control

###

This listing pairs compounds with measured T/C.
- Tested on: L1210 leukemia ip in BDF1 mice, survival T/C
- Assay Method Text: NCI In Vivo Anticancer Drug Screen. Data for tumor model L1210 Leukemia (intraperitoneal) in B6D2F1 (BDF1) mice
- Stated Conditions: endpoint: mean survival time; dose: 400.0 mg/kg/injection; schedule: Q04DX002 (ip); vehicle: saline; higher = longer survival
Toxic doses and inconclusive results are not listed.

Consider the reported T/C for these compounds:
Request: Look up T/C: CCCCCCOC(=O)C(C)(O)C(Cl)c1ccccc1 (centres undefined)
Response: 91 % of control

Request: Item CC(C)(C)NC(=O)NN(c1ccccc1)C1CCS(=O)(=O)C1 (centres undefined) has what recorded T/C?
Response: 97 % of control

Request: Value lookup for T/C; key = CCOCCOCCOCCOc1ccc2c(c1)OCO2
Response: 107 % of control

More entries:
Request: Return reported T/C; argument: CC(C(=O)O)C(C)(O)C(C)(C)C (centres undefined)
Response: 108 % of control

Request: Which T/C value is on record for NCC1CCNCC1 ?
Response: 97 % of control

Request: Need T/C of Cc1ccc(C)c(NC(=O)NC2CCCCC2)c1 , thanks.
Response: 103 % of control

###

- System: L1210 leukemia ip in BDF1 mice, survival T/C
- Assay Method Text: NCI In Vivo Anticancer Drug Screen. Data for tumor model L1210 Leukemia (intraperitoneal) in B6D2F1 (BDF1) mice
- Stated Conditions: endpoint: mean survival time; dose: 200.0 mg/kg/injection; schedule: Q01DX009 (ip); vehicle: saline with Tween-80; higher = longer survival
Inconclusive results and toxic doses are left out.
Measurement Type: T/C

Worked set:
Request: Hello, I am looking for reported T/C with L1210 leukemia ip in BDF1 mice, survival T/C for CN(C)N=Nc1cc(Cl)cc(C(N)=O)c1Cl . Could you help?
Response: 121 % of control

Request: Look up T/C with L1210 leukemia ip in BDF1 mice, survival T/C for this compound: COC(=O)c1ccccc1C1(c2ccccc2C(=O)OC)OC(=O)c2ccccc21
Response: 101 % of control

Note: attention shifts to another entry.
Request: Give L1210 leukemia ip in BDF1 mice, survival T/C T/C for COC(=O)c1ccc(OC(=O)Nc2cc(Cl)ccc2C)cc1
Response: 89 % of control

###

Recorded T/C, one value per entry.
- Tested on: L1210 leukemia ip in BDF1 mice, survival T/C
- Assay Method Text: NCI In Vivo Anticancer Drug Screen. Data for tumor model L1210 Leukemia (intraperitoneal) in B6D2F1 (BDF1) mice
- Stated Conditions: endpoint: mean survival time; dose: 100.0 mg/kg/injection; schedule: Q01DX001 (ip); vehicle: saline with Tween-80; higher = longer survival
Inconclusive results and toxic doses are left out.

# count of solved cases: 5
Request: Recorded T/C for CC(=O)OC1(c2ccccc2)OC(=O)C(C)(C)c2ccccc21 (stereo unspecified) , please?
Response: 94 % of control

Request: Quick one: T/C of CCCCCSP(=S)(C(C)C)C(C)C ?
Response: 95 % of control

Request: Can you share its T/C? I mean this molecule: NN1C(=O)c2c(Cl)c(Cl)c(Cl)c(Cl)c2C1=O
Response: 87 % of control

Request: Sample Cc1csc(=S)n1-c1ccc(Cl)cc1 — what was its T/C?
Response: 107 % of control

Request: Give the measured T/C of CCCCCCCNCCC#N .
Response: 95 % of control

More entries:
Request: Reported T/C, molecule [O-]/[N+](=N/O)c1ccc(Cl)cc1 : ____
Response: 100 % of control

Request: Entry Cc1cc(C)cc(N=Cc2ccccc2)c1 : reported T/C = ?
Response: 98 % of control

Request: Which value of T/C has been reported for Cc1ccc(C)c(NC(=O)Nc2nccs2)c1 in the records?
Response: 96 % of control

Request: Quick one: T/C of Cc1cc2c(-c3ccccc3)c(C(=O)c3ccccc3)c(C(=O)c3ccccc3)c(-c3ccccc3)c2cc1C ?
Response: 89 % of control

Request: Which T/C reading was recorded for the molecule CCN(CC)c1ccc(N=Nc2ncn[nH]2)c(O)c1 ?
Response: 100 % of control

Request: Would you mind telling me what T/C value was observed for COc1cc(C(=O)NNC(=O)c2ccc(Cl)c(Cl)c2)cc(OC)c1OC ?
Response: 93 % of control

Request: Quick one: T/C of Cc1c(Cl)cccc1NC(=O)OC/C=C/c1ccccc1 ?
Response: 93 % of control

Request: # get_value(readout='T/C', item= COC(=O)/C(=C\c1ccccc1)CN1CCCCC1 )
Response: 104 % of control

Request: Query: T/C; subject: CCCCCCCCCCC(C)CCCCCCCC (stereo unspecified)
Response: 113 % of control

Request: Fill in: T/C of COc1cc(Cc2c(C=O)[nH]c(=S)[nH]c2=O)cc(OC)c1OC is ___
Response: 90 % of control

Request: Can you look up the measured T/C of CCn1c(C)[n+](CC)c2ccc(C(C)=O)cc21 for me?
Response: 97 % of control
